system: CC531 cells; details: approximately 24 hour incubation, global sigmoidal fit of three assays, n=8, ±SD

mol_smiles	system_under_test	EC50 [µM]
CO[C@@]12[C@H](COC(N)=O)C3=C(C(=O)C(C)=C(N)C3=O)N1C[C@@H]1N[C@@H]12	CC531 cells	19.6
